meta.source: patent US8802726B2

Tested on: α-sarcoglycan (SG)-null C57BL/6 mice
Test: Creatine kinase activity measurements in serum, muscular dystrophy model
Assay type: in vivo
Details: 80 days of treatment, daily in the diet; Ib 100, XXXVb 12, IIIb 30, prednisolone 3 mg/kg
Procedure: Muscular Dystrophy Model (α-Sarcoglycan-Deficient Mice) • 2-acetyloxy benzoic acid 3-(nitrooxymethyl)benzoate of formula (Ib); • pravastatin 4-(nitrooxy)butyl ester which of formula (XXXVb); • 2-fluoro-alfa-methyl-4[1,1′-biphenyl]4-acetic acid 4-nitrooxybutyl ester of formula (IIIb); • prednisolone as reference corticosteroid drug. […] 24 hours later animals were sacrificed, tissue isolated and histological characteristics analysed. […]
# key: entry, value: CK plasma level
# unit: U/ml | format: bare number

// below: answered compounds
INSERT INTO measurements (compound, value_observed) VALUES
  ('C[C@]12C=CC(=O)C=C1CC[C@@H]1[C@@H]2[C@@H](O)C[C@@]2(C)[C@H]1CC[C@]2(O)C(=O)CO [Prednisolone, prednisolone, reference compound]', 717.6),
  ('CC(C(=O)OCCCCO[N+](=O)[O-])c1ccc(-c2ccccc2)c(F)c1 (stereo not shown)', 482.3);

Consider the record given below.
Look up and state reported CK plasma level for `CC(=O)Oc1ccccc1C(=O)Oc1cccc(CO[N+](=O)[O-])c1`
494.6

----------
Tested on: α-sarcoglycan (SG)-null C57BL/6 mice
Test: Creatine kinase activity measurements in serum, muscular dystrophy model
Format: in vivo
Details: 20 days of treatment, daily in the diet; Ib 100, XXXVb 12, IIIb 30, prednisolone 3 mg/kg
# key: entry, value: CK plasma level
# unit: U/ml | format: bare number

INSERT INTO measurements (compound, measured_parameter, value_observed) VALUES
  ('CC(C(=O)OCCCCO[N+](=O)[O-])c1ccc(-c2ccccc2)c(F)c1 (stereo not shown) [(IIIb)]', 'CK plasma level', 662.6);

Consider the record given below.
Look up and state reported CK plasma level for CC(=O)Oc1ccccc1C(=O)Oc1cccc(CO[N+](=O)[O-])c1 [(Ib)]
665.6
